pKi: −log10 of the molar value.
Observed pKi values for Transitional endoplasmic reticulum ATPase (Homo sapiens, UniProt P55072) are listed in what follows.

smilesRepresentation	targetOfAssay	pKi
CC#CCNC(=O)c1cccc2c1cc(C)n2-c1nc2c(c(NCc3ccccc3)n1)CCCC2	Transitional endoplasmic reticulum ATPase (Homo sapiens, UniProt P55072)	7.43
CC#CC(=O)Nc1cccc2c1cc(C)n2-c1nc2c(c(NCc3ccccc3)n1)COCC2	Transitional endoplasmic reticulum ATPase (Homo sapiens, UniProt P55072)	7.49
C=CC(=O)Nc1cccc2c1cc(C)n2-c1nc2c(c(NCc3ccccc3)n1)COCC2	Transitional endoplasmic reticulum ATPase (Homo sapiens, UniProt P55072)	7.58
CCCC#CC(=O)Nc1cccc2c1cc(C)n2-c1nc2c(c(NCc3ccccc3)n1)CCCC2	Transitional endoplasmic reticulum ATPase (Homo sapiens, UniProt P55072)	7.57
Cc1cc2c(C(=O)NCC#N)cccc2n1-c1nc2c(c(NCc3ccccc3)n1)CCCC2	Transitional endoplasmic reticulum ATPase (Homo sapiens, UniProt P55072)	7.55
C#CC(=O)Nc1cccc2c1cc(C)n2-c1nc2c(c(NCc3ccccc3)n1)COCC2	Transitional endoplasmic reticulum ATPase (Homo sapiens, UniProt P55072)	7.48
CCC#CC(=O)Nc1cccc2c1cc(C)n2-c1nc2c(c(NCc3ccccc3)n1)CCCC2	Transitional endoplasmic reticulum ATPase (Homo sapiens, UniProt P55072)	7.37
